Cited source for all entries: the supplement of paper PMC11061612

Here, each record is paired with measured Bliss excess data.
Tested on: CAL-72 (Osteosarcoma)
ASSAY METHOD TEXT: Bliss excess, mean over the matrix (fraction); higher = more synergy

COMPOUND: N#Cc1cnc(Nc2cc(NC[C@H]3CNCCO3)c(C(F)(F)F)cn2)cn1 [SRA737] + C=CCn1c(=O)c2cnc(Nc3ccc(N4CCN(C)CC4)cc3)nc2n1-c1cccc(C(C)(C)O)n1 [AZD1775] (first compound max 10 µM, partner max 1 µM)
Bliss excess: 0.0934
--
COMPOUND: CC1(C)CCC(CN2CCN(c3ccc(C(=O)NS(=O)(=O)c4ccc(NCC5CCOCC5)c([N+](=O)[O-])c4)c(Oc4cnc5[nH]ccc5c4)c3)CC2)=C(c2ccc(Cl)cc2)C1 [Venetoclax] + COc1cc(Nc2ncc3c(n2)-c2ccc(Cl)cc2C(c2c(F)cccc2OC)=NC3)ccc1C(=O)O [Alisertib] (first compound max 1 µM, 7x7, partner max 10 µM)
Bliss excess: -0.049

###

Tested on: Hs-746T (Gastric Carcinoma)
ASSAY METHOD TEXT: combination Emax (second highest fraction inhibited in the dose matrix, 72 h); higher = more inhibition; extreme values may be limits of the assay
ENDPOINT LABEL: combination Emax

COMPOUND: C[C@@H](c1ccc2nccn2c1)n1nnc2ncc(-c3cnn(C)c3)nc21 [Savolitinib] + CC1(C)CCC(CN2CCN(c3ccc(C(=O)NS(=O)(=O)c4ccc(NCC5CCOCC5)c([N+](=O)[O-])c4)c(Oc4cnc5[nH]ccc5c4)c3)CC2)=C(c2ccc(Cl)cc2)C1 [Venetoclax] (first compound max 1 µM, 7x7, partner max 1 µM)
SUBJECT OF TEST: Hs-746T (Gastric Carcinoma)
ENDPOINT LABEL: combination Emax
NUMERIC VALUE: 0.664
//
COMPOUND: COc1cccc(OCCCN)c1-c1cc(Nc2cnc(C#N)cn2)n[nH]1 [Prexasertib] + O=C(c1cc(Cc2n[nH]c(=O)c3ccccc23)ccc1F)N1CCN(C(=O)C2CC2)CC1 [Olaparib] (first compound max 1 µM, 7x7, partner max 10 µM)
SUBJECT OF TEST: Hs-746T (Gastric Carcinoma)
ENDPOINT LABEL: combination Emax
NUMERIC VALUE: 0.806
//
COMPOUND: COc1cccc(OCCCN)c1-c1cc(Nc2cnc(C#N)cn2)n[nH]1 [Prexasertib] + C[C@@H]1COCCN1C2=NC(=NC(=C2)C3(CC3)[S@](=N)(=O)C)C4=C5C=CNC5=NC=C4 [AZD6738] (first compound max 1 µM, 7x7, partner max 10 µM)
SUBJECT OF TEST: Hs-746T (Gastric Carcinoma)
ENDPOINT LABEL: combination Emax
NUMERIC VALUE: 0.754
//
COMPOUND: Cc1cc2ncnn2cc1Nc1ncc2c(n1)n(C1CCOCC1)c(=O)n2C [AZD7648] + C=CCn1c(=O)c2cnc(Nc3ccc(N4CCN(C)CC4)cc3)nc2n1-c1cccc(C(C)(C)O)n1 [AZD1775] (first compound max 10 µM, partner max 1 µM)
SUBJECT OF TEST: Hs-746T (Gastric Carcinoma)
ENDPOINT LABEL: combination Emax
NUMERIC VALUE: 0.652
//
COMPOUND: COc1cccc(OCCCN)c1-c1cc(Nc2cnc(C#N)cn2)n[nH]1 [Prexasertib] + C=CCn1c(=O)c2cnc(Nc3ccc(N4CCN(C)CC4)cc3)nc2n1-c1cccc(C(C)(C)O)n1 [AZD1775] (first compound max 1 µM, partner max 1 µM)
SUBJECT OF TEST: Hs-746T (Gastric Carcinoma)
ENDPOINT LABEL: combination Emax
NUMERIC VALUE: 0.78
//
COMPOUND: COc1cc2c(cc1OCCCCCOc1cc3c(cc1OC)C(=O)N1C=C(C)C[C@H]1C=N3)N=C[C@@H]1CC(C)=CN1C2=O [SG3199] + O=C(c1cc(Cc2n[nH]c(=O)c3ccccc23)ccc1F)N1CCN(C(=O)C2CC2)CC1 [Olaparib] (first compound max 0.001 µM, 7x7, partner max 10 µM)
SUBJECT OF TEST: Hs-746T (Gastric Carcinoma)
ENDPOINT LABEL: combination Emax
NUMERIC VALUE: 0.292
//
COMPOUND: CN(CCO)CC[C@H](CSc1ccccc1)Nc1ccc(S(=O)(=O)NC(=O)c2ccc(N3CCC([C@@H](O)c4ccccc4-c4ccc(Cl)cc4)CC3)cc2)cc1S(=O)(=O)C(F)(F)F [AZD4320] + Cn1cnc2c(F)c(Nc3ccc(Br)cc3Cl)c(C(=O)NOCCO)cc21 [Selumetinib] (first compound max 1 µM, 7x7, partner max 3 µM)
SUBJECT OF TEST: Hs-746T (Gastric Carcinoma)
ENDPOINT LABEL: combination Emax
NUMERIC VALUE: 0.77

###

Test system: BFTC-909 (Kidney Carcinoma)
ASSAY METHOD TEXT: Bliss excess, mean over the matrix (fraction); higher = more synergy

MOLECULE: NC1(C(=O)N[C@@H](CCO)c2ccc(Cl)cc2)CCN(c2ncnc3[nH]ccc23)CC1 [Capivasertib] + COc1nnc2ccc(N3CCC(c4ccc(OCCN5CCN(C)C(=O)[C@H]5C)cc4)CC3)nn12 [AZD5153] (first compound max 10 µM, 7x7, partner max 1 µM)
Bliss excess: 0.0433
//
MOLECULE: Cc1c2c(nn1C)CSCc1cc(n(C)n1)CSc1cc(c3ccccc3c1)OCCCc1c(C(=O)O)n(C)c3c-2c(Cl)ccc13 [AZD5991] + C[C@@H]1COCCN1C2=NC(=NC(=C2)C3(CC3)[S@](=N)(=O)C)C4=C5C=CNC5=NC=C4 [AZD6738] (first compound max 1 µM, 7x7, partner max 10 µM)
Bliss excess: 0.0508
//
MOLECULE: Cn1cnc2c(F)c(Nc3ccc(Br)cc3Cl)c(C(=O)NOCCO)cc21 [Selumetinib] + CCN(CCO)CCCOc1ccc2c(Nc3cc(CC(=O)Nc4cccc(F)c4)[nH]n3)ncnc2c1 [AZD2811] (first compound max 10 µM, 7x7, partner max 1 µM)
Bliss excess: -0.0093
//
MOLECULE: CC(=O)Nc1cccc(-n2c(=O)n(C3CC3)c(=O)c3c(Nc4ccc(I)cc4F)n(C)c(=O)c(C)c32)c1 [Trametinib] + Cc1nc(-c2cn3c(n2)-c2ccc(-c4cnn(C(C)(C)C(N)=O)c4)cc2OCC3)n(C(C)C)n1 [Taselisib] (first compound max 1 µM, 7x7, partner max 10 µM)
Bliss excess: 0.182

###

Tested on: KS-1 (Glioblastoma)
ASSAY METHOD TEXT: Bliss excess, mean over the matrix (fraction); higher = more synergy

MOLECULE: COc1cc2ncnc(Nc3ccc(F)c(Cl)c3)c2cc1OCCCN1CCOCC1 [Gefitinib] + CC(C)n1c(=O)n(C)c2cnc3cc(F)c(-c4ccc(OCCCN5CCCCC5)nc4)cc3c21 [AZD1390] (first compound max 10 µM, 7x7, partner max 0.3 µM)
SUBJECT OF TEST: KS-1 (Glioblastoma)
Bliss excess: -0.0599

MOLECULE: N#Cc1cnc(Nc2cc(NC[C@H]3CNCCO3)c(C(F)(F)F)cn2)cn1 [SRA737] + Nc1ccn([C@@H]2O[C@H](CO)[C@@H](O)C2(F)F)c(=O)n1 [Gemcitabine] (first compound max 10 µM, 7x7, partner max 0.3 µM)
SUBJECT OF TEST: KS-1 (Glioblastoma)
Bliss excess: 0.0304

MOLECULE: COc1cccc2c1C(=O)c1c(O)c3c(c(O)c1C2=O)C[C@@](O)(C(=O)CO)C[C@@H]3O[C@H]1C[C@H](N)[C@H](O)[C@H](C)O1 [Doxorubicin] + Cc1cc2ncnn2cc1Nc1ncc2c(n1)n(C1CCOCC1)c(=O)n2C [AZD7648] (first compound max 1 µM, 7x7, partner max 10 µM)
SUBJECT OF TEST: KS-1 (Glioblastoma)
Bliss excess: 0.0176

MOLECULE: C[C@@H](Oc1cc(-c2cnn(C3CCNCC3)c2)cnc1N)c1c(Cl)ccc(F)c1Cl [Crizotinib] + CC1=C(C(=CC=C1)Cl)NC(=O)C2=CN=C(S2)NC3=CC(=NC(=N3)C)N4CCN(CC4)CCO [Dasatinib] (first compound max 10 µM, 7x7, partner max 2 µM)
SUBJECT OF TEST: KS-1 (Glioblastoma)
Bliss excess: 0.0499

MOLECULE: CN(C)CCCOc1ccc(-c2ccc3ncc4c(c3c2)n(C2CCOCC2)c(=O)n4C)cn1 [AZD0156] + CCN(CCO)CCCOc1ccc2c(Nc3cc(CC(=O)Nc4cccc(F)c4)[nH]n3)ncnc2c1 [AZD2811] (first compound max 1 µM, 7x7, partner max 1 µM)
SUBJECT OF TEST: KS-1 (Glioblastoma)
Bliss excess: 0.0228

MOLECULE: CCc1c2c(nc3ccc(O)cc13)-c1cc3c(c(=O)n1C2)COC(=O)[C@]3(O)CC [SN-38] + CN(C)CCCOc1ccc(-c2ccc3ncc4c(c3c2)n(C2CCOCC2)c(=O)n4C)cn1 [AZD0156] (first compound max 0.3 µM, 7x7, partner max 1 µM)
SUBJECT OF TEST: KS-1 (Glioblastoma)
Bliss excess: -0.0369

MOLECULE: CC1(C)CCC(CN2CCN(c3ccc(C(=O)NS(=O)(=O)c4ccc(NCC5CCOCC5)c([N+](=O)[O-])c4)c(Oc4cnc5[nH]ccc5c4)c3)CC2)=C(c2ccc(Cl)cc2)C1 [Venetoclax] + CS(=O)(=O)CCNCc1ccc(-c2ccc3ncnc(Nc4ccc(OCc5cccc(F)c5)c(Cl)c4)c3c2)o1 [Lapatinib] (first compound max 1 µM, 7x7, partner max 10 µM)
SUBJECT OF TEST: KS-1 (Glioblastoma)
Bliss excess: -0.0411

MOLECULE: COc1cccc(OCCCN)c1-c1cc(Nc2cnc(C#N)cn2)n[nH]1 [Prexasertib] + CCc1c2c(nc3ccc(O)cc13)-c1cc3c(c(=O)n1C2)COC(=O)[C@]3(O)CC [SN-38] (first compound max 1 µM, 7x7, partner max 0.3 µM)
SUBJECT OF TEST: KS-1 (Glioblastoma)
Bliss excess: -0.0848

MOLECULE: Cn1cnc2c(F)c(Nc3ccc(Br)cc3Cl)c(C(=O)NOCCO)cc21 [Selumetinib] + C=CCn1c(=O)c2cnc(Nc3ccc(N4CCN(C)CC4)cc3)nc2n1-c1cccc(C(C)(C)O)n1 [AZD1775] (first compound max 10 µM, partner max 1 µM)
SUBJECT OF TEST: KS-1 (Glioblastoma)
Bliss excess: -0.0037
